B1: library; a variant is named by its letters at N, in order (parent)
chain: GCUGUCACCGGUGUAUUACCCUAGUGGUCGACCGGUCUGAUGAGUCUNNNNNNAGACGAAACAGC

Variants of: B1
Assay: FACS-Seq fitted mean relative fluorescence mCherry/BFP with ligand (log10 relative fluorescence); ligand: hypoxanthine (xanthine aptamer); ligand concentration (+) FACS-Seq: 5 mM; higher = higher reporter protein expression
Conditions: HEK293T, ligand present: yes
Reported Metric: FACS-Seq fitted mean (log10)
In your answer, state the number alone without any accompanying words.

Worked examples, 5 variants total:
Query Sequence: GCUGUCACCGGUGUAUUACCCUAGUGGUCGACCGGUCUGAUGAGUCUCAAAAGAGACGAAACAGC [CAAAAG]
Readout Number: 0.174
//
Query Sequence: GCUGUCACCGGUGUAUUACCCUAGUGGUCGACCGGUCUGAUGAGUCUUUACACAGACGAAACAGC [UUACAC]
Readout Number: 0.444
//
Query Sequence: GCUGUCACCGGUGUAUUACCCUAGUGGUCGACCGGUCUGAUGAGUCUGUCUCGAGACGAAACAGC [GUCUCG]
Readout Number: 0.575
//
Query Sequence: GCUGUCACCGGUGUAUUACCCUAGUGGUCGACCGGUCUGAUGAGUCUUUACCGAGACGAAACAGC [UUACCG]
Readout Number: -0.0713
//
Query Sequence: GCUGUCACCGGUGUAUUACCCUAGUGGUCGACCGGUCUGAUGAGUCUUAGUGUAGACGAAACAGC [UAGUGU]
Readout Number: 0.449

The recorded FACS-Seq fitted mean (log10) for GCUGUCACCGGUGUAUUACCCUAGUGGUCGACCGGUCUGAUGAGUCUUGUCCCAGACGAAACAGC [UGUCCC] is 0.29

Looking up GCUGUCACCGGUGUAUUACCCUAGUGGUCGACCGGUCUGAUGAGUCUUACUGUAGACGAAACAGC [UACUGU] , I see its FACS-Seq fitted mean (log10) listed as 0.638
